Test: Volume of distribution at steady state in dog
Type: ADME, Canis lupus familiaris
Settings: in vivo, read-out: Vdss
readout: Vd (L/kg)
Response body: numeric value in L/kg, unit text excluded.

## Input Item C=CC(=O)N1C[C@H](Nc2ncnc3[nH]ccc23)CC[C@@H]1C has what recorded Vd?
## Output 1.1

----------
Assay: Half life in monkey plasma
Type: ADME, Macaca mulatta
Details: rhesus monkey
readout: half-life (min)
Reply with just the number (in min).

## Input Endpoint output: half-life of C=CC(=O)N1C[C@H](Nc2ncnc3[nH]ccc23)CC[C@@H]1C [RITLECITINIB] . Value?
## Output 42

----------
Target: UniProt:P42681
Sequence (P42681 whole entry): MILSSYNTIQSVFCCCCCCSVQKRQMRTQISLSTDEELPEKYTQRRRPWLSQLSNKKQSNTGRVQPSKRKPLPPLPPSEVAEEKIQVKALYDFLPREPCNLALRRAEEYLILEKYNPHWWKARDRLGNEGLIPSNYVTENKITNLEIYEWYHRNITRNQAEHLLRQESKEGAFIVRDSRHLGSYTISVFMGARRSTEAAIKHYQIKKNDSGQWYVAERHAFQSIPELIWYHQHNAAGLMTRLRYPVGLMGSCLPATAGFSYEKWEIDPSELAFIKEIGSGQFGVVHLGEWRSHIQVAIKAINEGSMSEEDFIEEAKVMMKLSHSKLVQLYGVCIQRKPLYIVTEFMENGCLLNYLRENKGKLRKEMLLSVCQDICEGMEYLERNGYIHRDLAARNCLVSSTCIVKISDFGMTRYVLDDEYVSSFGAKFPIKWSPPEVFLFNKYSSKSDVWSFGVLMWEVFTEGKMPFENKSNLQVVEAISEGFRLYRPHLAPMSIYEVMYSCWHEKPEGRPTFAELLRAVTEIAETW
Assay: Inhibition of recombinant human N-terminal GST-tagged TXK using GEPLYWSFPAKKK as substrate measured every 60 secs for 1 hr by PK/LDH coupled spectrophotometric assay
readout: pKi
Expect pKi as a plain number equal to -log10 of the molar concentration.

## Input Need pKi of C=CC(=O)N1C[C@H](Nc2ncnc3[nH]ccc23)CC[C@@H]1C , thanks.
## Output 6.88

----------
Assay: Oral bioavailability in rat
Type: ADME, organism-based
Conditions: in vivo
readout: bioavailability

## Input Consider the compound C=CC(=O)N1C[C@H](Nc2ncnc3[nH]ccc23)CC[C@@H]1C and give its measured bioavailability.
## Output 85%

----------
Experiment: Aqueous solubility of the compound
Assay type: physicochemical
readout: solubility

## Input Given the entry C=CC(=O)N1C[C@H](Nc2ncnc3[nH]ccc23)CC[C@@H]1C [RITLECITINIB] , report its measured solubility.
## Output > 2000 µg/mL

----------
Assay: Clearance in rat in presence of CYP450 inhibitor ABT
Format: ADME
Conditions: with ABT (CYP450 inhibitor)
Overview of reported clearance across a group of compounds:
Field format: number, assumed mL/min/kg, no unit text.

C=CC(=O)N1CC[C@H]2CCN(c3ncnc4[nH]ccc34)[C@H]2C1: 81

Now look at this one.
## Input Recorded clearance for CC(=O)N1CC[C@H]2CCN(c3ncnc4[nH]ccc34)[C@H]2C1 , please?
## Output 10

----------
Target: Tyrosine-protein kinase JAK3 (Homo sapiens, UniProt P52333)
Sequence (P52333 whole entry, the tested form may be a part): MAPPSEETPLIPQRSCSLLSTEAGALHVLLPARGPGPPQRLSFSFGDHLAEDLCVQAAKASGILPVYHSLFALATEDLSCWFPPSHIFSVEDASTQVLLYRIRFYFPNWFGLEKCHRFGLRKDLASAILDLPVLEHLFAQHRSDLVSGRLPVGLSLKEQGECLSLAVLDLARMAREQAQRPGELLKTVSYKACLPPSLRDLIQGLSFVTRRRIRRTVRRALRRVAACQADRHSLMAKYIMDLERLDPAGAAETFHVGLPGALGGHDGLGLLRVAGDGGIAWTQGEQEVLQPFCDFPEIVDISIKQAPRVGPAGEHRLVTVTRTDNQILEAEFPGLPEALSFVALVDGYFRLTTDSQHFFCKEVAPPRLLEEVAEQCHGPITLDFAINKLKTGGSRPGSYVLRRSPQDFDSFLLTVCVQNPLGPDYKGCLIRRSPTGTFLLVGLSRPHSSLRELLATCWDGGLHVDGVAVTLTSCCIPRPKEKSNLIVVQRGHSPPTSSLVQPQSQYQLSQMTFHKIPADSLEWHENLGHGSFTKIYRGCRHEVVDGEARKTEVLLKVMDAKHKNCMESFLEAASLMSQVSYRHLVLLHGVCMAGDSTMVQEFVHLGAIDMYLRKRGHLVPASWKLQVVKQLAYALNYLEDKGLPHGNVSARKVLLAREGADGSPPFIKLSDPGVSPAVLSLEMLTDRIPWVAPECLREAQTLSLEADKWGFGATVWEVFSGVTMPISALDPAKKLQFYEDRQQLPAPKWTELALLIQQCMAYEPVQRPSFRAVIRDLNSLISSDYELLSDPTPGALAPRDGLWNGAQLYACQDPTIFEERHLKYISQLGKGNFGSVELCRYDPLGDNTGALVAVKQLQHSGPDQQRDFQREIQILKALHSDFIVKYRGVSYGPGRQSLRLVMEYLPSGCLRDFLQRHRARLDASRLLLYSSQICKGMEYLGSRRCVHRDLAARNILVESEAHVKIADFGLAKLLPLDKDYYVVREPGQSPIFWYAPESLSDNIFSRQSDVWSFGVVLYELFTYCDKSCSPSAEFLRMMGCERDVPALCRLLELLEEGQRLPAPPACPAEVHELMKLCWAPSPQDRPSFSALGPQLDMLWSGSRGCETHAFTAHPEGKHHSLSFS
Experiment: Inhibition of JAK3 in human PBMC assessed as inhibition of IL-15 induced STAT5 phosphorylation preincubated for 75 mins followed by IL-15 addition and measured after 15 mins by Alexa Fluor 647 staining based flow cytometry
readout: IC50 (µM)
Number in µM, nothing else.

C=CC(=O)Nc1cccc(-c2ncnc3[nH]ccc23)c1: 0.032

## Input Reported IC50 for C=CC(=O)N1CCC[C@@H](Nc2ncnc3[nH]ccc23)C1 : what is it?
## Output 0.107

----------
Assay: Blood clearance in mouse
Format: ADME, organism-based
Conditions: whole blood
readout: clearance (mL/min/kg)
Write it as a number; the unit mL/min/kg goes unstated.

## Input // clearance lookup, key: C=CC(=O)N1C[C@H](Nc2ncnc3[nH]ccc23)CC[C@@H]1C
## Output 48

----------
Molecular target: Tyrosine-protein kinase JAK3 (Homo sapiens, UniProt P52333)
Assay: Inhibition of recombinant human GST-tagged cytoplasmic JAK3 catalytic domain (781 to 1124 residues) expressed in baculovirus expression system using FITC-KGGEEEEYFELVKK as substrate in presence of 4 uM ATP by microfluidic assay
readout: IC50 (nM)
Supply the numeric figure in nM, leaving out any unit text.

C=CC(=O)Nc1cccc(-c2ncnc3[nH]ccc23)c1: 0.3
C=CC(=O)N1CCC[C@@H](N(C)c2ncnc3[nH]ccc23)C1: 18
C/C=C/C(=O)N1CCC[C@@H](Nc2ncnc3[nH]ccc23)C1: 1610

Now for another entry.
## Input Query the reported IC50 for Tyrosine-protein kinase JAK3 (Homo sapiens, UniProt P52333); item: CC(=O)N1CC[C@H]2CCN(c3ncnc4[nH]ccc34)[C@H]2C1
## Output 372
